This listing pairs compounds with measured CC50 at 3 days.
Assay: in vitro
Type: cell-based
Settings: human, HepG2 or HepG2.117 cells, ATPlite, 3-days incubation (not marked with *), mean value

Below, 2 compounds whose answers are already recorded.
[[record]]
compound = "CNC(=O)c1ccc(-n2c(N[C@@H](C)c3nc[nH]n3)nc3c(c2=O)C[C@@H](C)N(C(=O)c2ccc(Cl)c(Cl)c2)C3)cc1 (single isomer, unassigned) [Compound C439b]"
parameter_measured = "CC50 at 3 days"
measured_value = "> 50 µM"

[[record]]
compound = "CC(C)Nc1nc2c(c(=O)n1-c1ccc(S(C)(=O)=O)c(C(F)F)c1)C[C@@H](C)N(C(=O)c1ccc(Cl)c(Cl)c1)C2 [Compound C385]"
parameter_measured = "CC50 at 3 days"
measured_value = "> 50 µM"


Look at this compound and give its reported CC50 at 3 days. CNC(=O)c1ccc(-n2c(NC(C)C)nc3c(c2=O)C[C@@H](C)N(C(=O)c2cc(F)c(Cl)cc2F)C3)cc1 [Compound C498]
> 50 µM

* * *

Assay: in vitro
Format: cell-based
Conditions: human, HepG2 or HepG2.117 cells, ATPlite, 3-days incubation (not marked with *), mean value
parameter.measured: CC50 at 3 days

The examples below pair each entry with its known result.
[[record]]
smiles_str = "CNC(=O)c1cc(C)c(-n2c(NC(C)C)nc3c(c2=O)C[C@@H](C)N(C(=O)c2ccc(Cl)c(Cl)c2)C3)c(C)c1"
measured_value = "> 50 µM"

[[record]]
smiles_str = "CNC(=O)c1ccc(-n2c(NCc3ncnn3C)nc3c(c2=O)C[C@@H](C)N(C(=O)c2ccc(Cl)c(Cl)c2)C3)cc1"
measured_value = "> 50 µM"


Name the reported CC50 at 3 days value associated with the compound `CNC(=O)c1ccc(-n2c(NC(C)C)nc3c(c2=O)C[C@@H](C)N(C(=O)c2cc(Cl)c(Cl)cn2)C3)cc1`
> 50 µM

* * *

Tested on: HepG2 cells
Experiment: in vitro
Assay type: cell-based
Conditions: HepG2 or HepG2.117 cells, ATPlite, 3-days incubation (not marked with *), mean value; read-out: CC50 (μM, mean value)
parameter.measured: CC50 (µM)
The reply should be a number in µM, with the unit left off.

Solved cases below.
[[record]]
molecule = "CC(C)Nc1nc2c(c(=O)n1-c1ccc(-c3ncc[nH]3)cc1Cl)C[C@@H](C)N(C(=O)c1ccc(Cl)c(Cl)c1)C2 (single isomer, unassigned) [Compound C393a]"
parameter_measured = "CC50"
measured_value = 14.1

[[record]]
molecule = "CNC(=O)c1ccc(-n2c(N[C@@H](C)C3CC3)nc3c(c2=O)C[C@@H](C)N(C(=O)c2ccc(Cl)c(Cl)c2)C3)c(Cl)c1 [Compound C387]"
parameter_measured = "CC50"
measured_value = 38

[[record]]
molecule = "CNC(=O)c1ccc(-n2c(NC(C)C)nc3c(c2=O)C[C@@H](C)N(C(=O)c2ccc(Cl)c(C(F)(F)F)c2)C3)c(C2CC2)c1 (single isomer, unassigned) [Compound C661b]"
parameter_measured = "CC50"
measured_value = 25.4


# context switch: different molecule, same CC50
Need CC50 of CC(C)Nc1nc2c(c(=O)n1-c1ccc(-c3ncc[nH]3)cc1Cl)C[C@@H](C)N(C(=O)c1ccc(Cl)c(Cl)c1)C2 [Compound C393] , thanks.
24.1

* * *

Assay: in vitro
Format: cell-based
Settings: human, HepG2 or HepG2.117 cells, ATPlite, 3-days incubation (not marked with *), mean value
parameter.measured: CC50 at 3 days

Check out these entries, answers already filled in.
[[record]]
molecule = "CNC(=O)c1ccc(-n2c(N[C@@H](C)c3ccc4[nH]ncc4c3)nc3c(c2=O)C[C@@H](C)N(C(=O)c2ccc(Cl)c(Cl)c2)C3)cc1 (single isomer, unassigned) [Compound C529b]"
measured_value = "> 50 µM"

[[record]]
molecule = "CNC(=O)c1ccc(-n2c(NC(C)C)nc3c(c2=O)C[C@@H](C)N(C(=O)c2ccc(Cl)cc2Cl)C3)cc1"
measured_value = "> 50 µM"

[[record]]
molecule = "CNC(=O)c1ccc(-n2c(N[C@H](C)c3ccc(C(F)(F)F)c(F)c3)nc3c(c2=O)C[C@@H](C)N(C(=O)c2ccc(Cl)c(Cl)c2)C3)cc1 (single isomer, unassigned) [Compound C659a]"
measured_value = "6.8 µM"

[[record]]
molecule = "CNC(=O)c1cc(-n2c(N[C@@H](C)c3ccc(OC(F)(F)F)cc3)nc3c(c2=O)C[C@@H](C)N(C(=O)c2ccc(Cl)c(Cl)c2)C3)nn1C"
measured_value = "> 50 µM"

[[record]]
molecule = "CNC(=O)c1ccc(-n2c(N[C@@H](C)c3ccc(F)cc3)nc3c(c2=O)C[C@@H](C)N(C(=O)c2ccc(Cl)c(Cl)c2)C3)cc1"
measured_value = "15.7 µM"

[[record]]
molecule = "CNC(=O)c1ccc(-n2c(NC(C)C)nc3c(c2=O)C[C@@H](C)N(C(=O)c2ccc(C(F)F)c(Cl)c2)C3)cc1"
measured_value = "> 50 µM"

[[record]]
molecule = "CNC(=O)c1ccc(-n2c(N3CCCOC(C)C3)nc3c(c2=O)C[C@@H](C)N(C(=O)c2ccc(Cl)c(Cl)c2)C3)cc1 (stereo partly shown)"
measured_value = "> 50 µM"

[[record]]
molecule = "CNC(=O)c1ccc(-n2c(NC(C)C)nc3c(c2=O)C[C@@H](C)N(C(=O)c2cc(Cl)c(Br)cc2F)C3)cc1"
measured_value = "> 50 µM"


Return reported CC50 at 3 days; argument: `CNC(=O)c1ccc(-n2c(NC(C)C)nc3c(c2=O)C[C@@H](C)N(C(=O)c2ccc(Br)c(F)c2OC)C3)cc1`
> 50 µM

Reported CC50 at 3 days for CNC(=O)c1ccc(-n2c(N[C@H](C)c3ccc(F)c(F)c3)nc3c(c2=O)C[C@@H](C)N(C(=O)c2ccc(Cl)c(Cl)c2)C3)cc1 (single isomer, unassigned) [Compound C417a] : what is it?
41.8 µM

I would be grateful if you could share the reported CC50 at 3 days for CNC(=O)c1ccc(-n2c(N[C@@H](c3ccc(OC)cc3)C(C)C)nc3c(c2=O)C[C@@H](C)N(C(=O)c2ccc(Cl)c(Cl)c2)C3)cc1 (single isomer, unassigned) [Compound C422a] .
10.5 µM

Please give the measured CC50 at 3 days for this molecule: CNC(=O)c1ccc(-n2c(N[C@@H](C)c3ccc4c(c3)OCO4)nc3c(c2=O)C[C@@H](C)N(C(=O)c2ccc(Cl)c(Cl)c2)C3)cc1 (single isomer, unassigned) [Compound C414b]
> 50 µM

What CC50 at 3 days value was documented for this molecule, CNC(=O)c1ccc(-n2c(N3CCC[C@H]3c3ccccc3)nc3c(c2=O)C[C@@H](C)N(C(=O)c2ccc(Cl)c(Cl)c2)C3)cc1 (single isomer, unassigned) [Compound C401b] ?
18.2 µM

Which CC50 at 3 days reading was recorded for the molecule CNC(=O)c1ccc(-n2c(NC(C)(C)C)nc3c(c2=O)C[C@@H](C)N(C(=O)c2ccc(Cl)c(C(F)(F)F)c2)C3)c(Cl)c1 (single isomer, unassigned) [Compound C677b] ?
24 µM

Name the recorded CC50 at 3 days for `CNC(=O)c1ccc(-n2c(NC(C)C)nc3c(c2=O)C[C@@H](C)N(C(=O)c2cc(F)c(Br)cc2F)C3)cc1` .
> 50 µM

I would be grateful if you could share the reported CC50 at 3 days for `CC(C)Nc1nc2c(c(=O)n1-c1ccc(-c3nn[nH]n3)cc1)C[C@@H](C)N(C(=O)c1ccc(Cl)c(Cl)c1)C2` .
> 50 µM

* * *

Experiment: in vitro
Format: cell-based
Settings: human, HepG2 or HepG2.117 cells, 4-days incubation (values marked with *), ATPlite; mean value
// values below are reported CC50 at 4 days

[[record]]
compound = "COc1ccccc1-n1c(NCc2ccc(C(F)(F)F)cc2)nc2c(c1=O)CCN(C(=O)c1ccc(Cl)c(Cl)c1)C2 [Compound C23]"
measured_value = "> 50 µM"

[[record]]
compound = "CNc1nc2c(c(=O)n1-c1ccccc1OC)CCN(C(=O)c1ccc(Cl)c(Cl)c1)C2 [Compound C11]"
measured_value = "> 50 µM"


// query CC50 at 4 days value for entry COc1ccccc1-n1c(NCc2cccnc2)nc2c(c1=O)CCN(C(=O)c1ccc(Cl)c(Cl)c1)C2 [Compound C9]
> 50 µM

* * *

Listed here are compounds together with their documented EC50.
System: HBV (HepG2.117 cell line, inducibly HBV producing)
Test: Anti-HBV activity: intracellular HBV DNA by real-time PCR in HepG2.117 cells after 3 days of treatment
Assay type: cell-based, hepatitis B virus
Conditions: Hepatitis B virus, HepG2.117, 72 h, HepG2.117 cells, 3 days of treatment, intracellular HBV DNA by real-time PCR; mean value; read-out: EC50 (μM, mean value)
The response must be a number in µM with no trailing unit.

[[record]]
compound = "CNc1noc2cc(-n3c(NC(C)C)nc4c(c3=O)C[C@@H](C)N(C(=O)c3ccc(Cl)c(Cl)c3)C4)ccc12 [Compound C305]"
measured_value = 0.07

[[record]]
compound = "COc1ccccc1-n1c(NCc2ccc(F)cc2F)nc2c(c1=O)CCN(C(=O)c1ccc(Cl)c(Cl)c1)C2 [Compound C29]"
measured_value = 7.43

[[record]]
compound = "CC(C)Nc1nc2c(c(=O)n1-c1ccc(S(C)(=O)=O)cc1)CCN(C(=O)C1Cc3ccccc3N1)C2 (stereo not drawn) [Compound C184]"
measured_value = 0.71

[[record]]
compound = "CNC(=O)c1nnc(-n2c(NC(C)C)nc3c(c2=O)C[C@@H](C)N(C(=O)c2ccc(Cl)c(Cl)c2)C3)[nH]1 [Compound C374]"
measured_value = 1.49

[[record]]
compound = "COc1ccccc1-n1c(NC(C)C)nc2c(c1=O)CCN(C(=O)c1ccc(Cl)c(Cl)c1)C2 [Compound C24]"
measured_value = 2.25


What value of EC50 has been recorded for this entry: CNC(=O)c1ncc(-n2c(NC)nc3c(c2=O)C[C@@H](C)N(C(=O)c2ccc(Cl)c(Cl)c2)C3)cn1 [Compound C327]
5.15

Values were extracted from patent US20230091047A1.
